SYSTEM: MMP-16 (Homo sapiens, UniProt P51512)
Sequence (P51512 120-607): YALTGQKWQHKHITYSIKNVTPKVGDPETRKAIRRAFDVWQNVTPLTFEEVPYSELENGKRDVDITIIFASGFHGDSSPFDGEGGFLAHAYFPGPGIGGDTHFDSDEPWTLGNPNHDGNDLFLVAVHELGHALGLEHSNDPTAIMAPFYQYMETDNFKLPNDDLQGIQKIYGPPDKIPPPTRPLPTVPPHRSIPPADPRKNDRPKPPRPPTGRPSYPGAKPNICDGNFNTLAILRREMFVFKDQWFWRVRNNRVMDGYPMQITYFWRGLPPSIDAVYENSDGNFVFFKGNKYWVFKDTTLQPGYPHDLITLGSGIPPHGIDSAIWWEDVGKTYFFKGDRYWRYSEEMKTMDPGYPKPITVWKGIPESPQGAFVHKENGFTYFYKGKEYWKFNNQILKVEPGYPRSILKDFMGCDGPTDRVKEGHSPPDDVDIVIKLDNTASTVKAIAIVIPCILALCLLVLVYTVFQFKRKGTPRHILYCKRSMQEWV
ASSAY_REMARKS: Cross-reactivity of Fabs and IgGs with MMP-16 (Example 8)
Format: biochemical
Set-up: key: X: Does not inhibit MMP-16 at [I] = 100 nM level
EXPERIMENTAL_SETUP: Fab 100 nM; 5 nM MMP16; 30 minutes at 30° C.; 10 μM substrate
MEASUREMENT_LABEL: MMP-16 (cross-reactivity, class symbol)

MOLECULE | ENDPOINT_VALUE
M0037-D01: human antibody (Fab, IgG) that binds and inhibits MMP-14; HC SEQ ID NO: 152, LC SEQ ID NO: 153 (antibody, V domains shown, Synthetically generated peptide) VH: EVQLLESGGGLVQPGGSLRLSCAASGFTFSMYMMIWVRQAPGKGLEWVSSIYPSGGNTMYADSVKGRFTISRDNSKNTLYLQMNSLRAEDTAVYYCATGVLRYFDWDAGSGMDVWGQGTTVTVSSLC VL: QDIQMTQSPSSLSASVGDRVTITCRASQGIRNDLGWYQQKPGKAPKRLIYVASSLQSGVPSRFSGSGSGTEFTLTISSLQPEDFATYYCLQHNSYPWTFGQGTKVEIK | X
